test: Biodistribution of radiometal-DOTA-BBN conjugates in CF1 normal mice; conditions: CF-1, mouse, in vivo, iv, total radioactivity, Avg % ID, Urine, 1 hour post-injection
observation_type: dose excreted at 1 h (%)
Numbers only, in %.

Bench note: what dose excreted at 1 h did CSCC[C@H](NC(=O)[C@H](CC(C)C)NC(=O)[C@H](Cc1cnc[nH]1)NC(=O)CNC(=O)[C@@H](NC(=O)[C@H](C)NC(=O)[C@H](Cc1c[nH]c2ccccc12)NC(=O)[C@H](CCC(N)=O)NC(=O)CN1CCN(CC(=O)O)CCN(CC(=O)O)CCN(CC(=O)O)CC1)C(C)C)C(N)=O [111In-DOTA-0-BBN[7-14]NH2, metal not drawn] show?
97
